Measured Ki, listed per entry.
Molecular target: isolated recombinant JAK1 kinase domain (Homo sapiens (Human))
Assay: JAK1 enzyme assay (Caliper LabChip, peptide phosphorylation)
Format: biochemical
Conditions: isolated recombinant JAK1 kinase domain, 25 μM ATP
Be sure to follow the number with its unit.

Solved cases below.
[
  {
    "compound": "CN1CCC2(CC1)CN(C(=O)Cn1cc(NC(=O)c3c(N)nn4cccnc34)c(-c3cc(Cl)ccc3OC(F)F)n1)CCO2",
    "Ki": "1.33 nM"
  },
  {
    "compound": "CN1CC[C@@H]2CN(C(=O)Cn3cc(NC(=O)c4cnn5cccnc45)c(-c4cc(Cl)ccc4OC(F)F)n3)C[C@@H]2C1",
    "Ki": "0.5 nM"
  },
  {
    "compound": "CN(CCCN1CCC(n2cc(NC(=O)c3c(N)nn4cccnc34)c(-c3cc(Cl)ccc3OC(F)F)n2)CC1)C(=O)c1ccccc1",
    "Ki": "2 nM"
  },
  {
    "compound": "CC(=O)N1CCC(CN2CCC(n3cc(NC(=O)c4c(N)nn5cccnc45)c(-c4cc(Cl)ccc4OC(F)F)n3)CC2)CC1",
    "Ki": "0.58 nM"
  },
  {
    "compound": "N#CC1(CN2C[C@@H]3CN(C(=O)Cn4cc(NC(=O)c5cnn6cccnc56)c(-c5cc(Cl)ccc5OC(F)F)n4)C[C@@H]3C2)CCCCC1",
    "Ki": "0.33 nM"
  }
]

Q: Need Ki, item CC(C)Oc1ccc(CN(C)C2CCN(C(=O)Cn3cc(NC(=O)c4cnn5cccnc45)c(-c4cc(Cl)ccc4OC(F)F)n3)CC2)cc1
Ans: 0.61 nM

Q: Item: CN(C1CCN(C(=O)Cn2cc(NC(=O)c3cnn4cccnc34)c(-c3cc(Cl)ccc3OC(F)F)n2)CC1)[C@H]1CCOC1
Ans: 0.33 nM

Q: What do we get for CN(CC1CCC(=O)O1)C1CCN(C(=O)Cn2cc(NC(=O)c3cnn4cccnc34)c(-c3cc(Cl)ccc3OC(F)F)n2)CC1 (stereo not drawn) ?
Ans: 0.7 nM

Q: Could you do the same for N#CCCNC1CCN(C(=O)Cn2cc(NC(=O)c3cnn4cccnc34)c(-c3cc(Cl)ccc3OC(F)F)n2)CC1 , please?
Ans: 0.4 nM

Q: Now this one: CCCCN(C)CC#Cc1nc(-c2cc(Cl)ccc2OC(F)F)c(NC(=O)c2cnn3cccnc23)s1
Ans: 0.16 nM

Q: And the next one, O=C(Nc1cn(CCNCc2cccc(O)c2)nc1-c1cc(Cl)ccc1OC(F)F)c1cnn2cccnc12 ?
Ans: 0.25 nM

Q: Then CC(C#N)CNC1CCN(C(=O)Cn2cc(NC(=O)c3cnn4cccnc34)c(-c3cc(Cl)ccc3OC(F)F)n2)CC1 (stereo not drawn) ?
Ans: 0.41 nM

###

Target: isolated recombinant JAK1 kinase domain (Homo sapiens (Human))
Assay: JAK1 enzyme assay (Caliper LabChip, peptide phosphorylation)
Format: biochemical
Conditions: isolated recombinant JAK1 kinase domain, 25 μM ATP
Measured pKi by item
Notebook: values listed as pKi are -log10 of the concentration (mol/L).

[
  {
    "molecule": "O=C(Nc1cn(CC(=O)N2CCC(F)(F)C2)nc1-c1cc(Cl)ccc1OC(F)F)c1cnn2cccnc12",
    "pKi": 9.46
  },
  {
    "molecule": "CN(C)CCN1CCN(C(=O)Cn2cc(NC(=O)c3cnn4cccnc34)c(-c3cc(Cl)ccc3OC(F)F)n2)CC1",
    "pKi": 9.07
  }
]

Q: Could you share what pKi was measured for CCN1CC2CN(C(=O)Cn3cc(NC(=O)c4c(N)nn5cccnc45)c(-c4cc(Cl)ccc4OC(F)F)n3)CC2C1 (centres unmarked) , tested on isolated recombinant JAK1 kinase domain (Homo sapiens (Human))?
Ans: 8.98

Q: Moving on to the next molecule: CN(CC1=CC(=O)OC1)C1CCN(C(=O)Cn2cc(NC(=O)c3cnn4cccnc34)c(-c3cc(Cl)ccc3OC(F)F)n2)CC1
Ans: 9.48

Q: // same read-out, input: CNC(=O)CN1CCC(n2cc(NC(=O)c3cnn4cccnc34)c(-c3cc(Cl)ccc3OC(F)F)n2)CC1
Ans: 8.88

###

Target: isolated recombinant JAK1 kinase domain (Homo sapiens (Human), UniProt P23458)
Sequence (P23458 875-1153): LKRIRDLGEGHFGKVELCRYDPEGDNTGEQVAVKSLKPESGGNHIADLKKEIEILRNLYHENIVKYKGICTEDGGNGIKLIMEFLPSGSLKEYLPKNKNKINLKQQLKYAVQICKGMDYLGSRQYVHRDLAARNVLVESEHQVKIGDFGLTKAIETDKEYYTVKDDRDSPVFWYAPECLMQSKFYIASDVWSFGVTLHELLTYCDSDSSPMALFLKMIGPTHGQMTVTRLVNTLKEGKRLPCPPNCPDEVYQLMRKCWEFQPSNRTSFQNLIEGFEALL
Test: JAK1 enzyme assay (Caliper LabChip, peptide phosphorylation)
Type: biochemical
Details: isolated recombinant JAK1 kinase domain, 25 μM ATP
Listed next: entries and their corresponding Ki.
Report the figure in nM without appending any unit label.

[
  {
    "compound-structure-string": "CN(CCc1ccc(Cl)cc1)C1CCN(C(=O)Cn2cc(NC(=O)c3cnn4cccnc34)c(-c3cc(Cl)ccc3OC(F)F)n2)CC1",
    "Ki [nM]": 1.2
  },
  {
    "compound-structure-string": "CN1CCC2(CC1)CN(C(=O)Cn1cc(NC(=O)c3cnn4cccnc34)c(-c3cc(Cl)ccc3OC(F)F)n1)CCO2",
    "Ki [nM]": 1.49
  }
]

Let us examine a further case.
Q: So what's the measured Ki for this one? O=C(Nc1cn(CC(=O)N2CCC(N3CC4CC(C3)O4)CC2)nc1-c1cc(Cl)ccc1OC(F)F)c1cnn2cccnc12
Ans: 0.37

###

Molecular target: isolated recombinant JAK1 kinase domain (Homo sapiens (Human), UniProt P23458)
Experiment: JAK1 enzyme assay (Caliper LabChip, peptide phosphorylation)
Assay type: biochemical
Settings: isolated recombinant JAK1 kinase domain, 25 μM ATP
recorded-metric: Ki (nM)
// return numeric value only (unit: nM, not printed)

See these solved cases before continuing.
[
  {
    "compound-structure-string": "Nc1nn2cccnc2c1C(=O)Nc1cn(CC(=O)N2C[C@H]3CN(CC4CCC(F)(F)CC4)C[C@H]3C2)nc1-c1cc(Cl)ccc1OC(F)F",
    "target": "isolated recombinant JAK1 kinase domain (Homo sapiens (Human), UniProt P23458)",
    "recorded-metric": "Ki",
    "result-units": "nM",
    "measured-value": 0.6
  },
  {
    "compound-structure-string": "Nc1nn2cccnc2c1C(=O)Nc1cn(CC(=O)N2CCC(Oc3ccccc3)CC2)nc1-c1cc(Cl)ccc1OC(F)F",
    "target": "isolated recombinant JAK1 kinase domain (Homo sapiens (Human), UniProt P23458)",
    "recorded-metric": "Ki",
    "result-units": "nM",
    "measured-value": 0.61
  },
  {
    "compound-structure-string": "CN(CCc1ccccn1)C1CCN(C(=O)Cn2cc(NC(=O)c3cnn4cccnc34)c(-c3cc(Cl)ccc3OC(F)F)n2)CC1",
    "target": "isolated recombinant JAK1 kinase domain (Homo sapiens (Human), UniProt P23458)",
    "recorded-metric": "Ki",
    "result-units": "nM",
    "measured-value": 0.72
  },
  {
    "compound-structure-string": "O=C(Nc1cn(CC(=O)N2C[C@H]3CN(CCCOC(=O)N4CCOCC4)C[C@H]3C2)nc1-c1cc(Cl)ccc1OC(F)F)c1cnn2cccnc12",
    "target": "isolated recombinant JAK1 kinase domain (Homo sapiens (Human), UniProt P23458)",
    "recorded-metric": "Ki",
    "result-units": "nM",
    "measured-value": 1.09
  }
]

Kindly consider the entry below.
Q: Item under review: CN1CCN(C(=O)c2ccc(-c3nc(-c4cc(Cl)ccc4OC(F)F)c(NC(=O)c4cnn5cccnc45)s3)cc2)CC1 . Reported Ki?
Ans: 0.93

###

System: JAK1-dependent STAT6 phosphorylation downstream of IL-13 stimulation in BEAS-2B human bronchial epithelial cells
Assay: JAK1 pathway assay in BEAS-2B cells (IL-13-pSTAT6, MSD)
Type: cell-based
Details: read-out: IL13-pSTAT6 EC50 (uM)_BEAS-2B
recorded-metric: EC50
Give me the value, and tack the unit on after it.

Solved cases below.
[
  {
    "compound": "CC1CN(C)CCN1C(=O)Cn1cc(NC(=O)c2cnn3cccnc23)c(-c2cc(Cl)ccc2OC(F)F)n1 (stereo not drawn)",
    "EC50": "0.0716 µM"
  },
  {
    "compound": "CNC(=O)[C@@H]1CCCN1C1CCN(C(=O)Cn2cc(NC(=O)c3cnn4cccnc34)c(-c3cc(Cl)ccc3OC(F)F)n2)CC1",
    "EC50": "0.0394 µM"
  }
]

# context switch: different compound, same EC50
Q: Suppose we examine the compound O=C(O)CCN1CCN(C(=O)Cn2cc(NC(=O)c3cnn4cccnc34)c(-c3cc(Cl)ccc3OC(F)F)n2)CC1 ; what EC50 value has been reported?
Ans: 3.61 µM

###

Biological target: isolated recombinant JAK2 kinase domain (Homo sapiens (Human), UniProt O60674)
Sequence (O60674 849-1124): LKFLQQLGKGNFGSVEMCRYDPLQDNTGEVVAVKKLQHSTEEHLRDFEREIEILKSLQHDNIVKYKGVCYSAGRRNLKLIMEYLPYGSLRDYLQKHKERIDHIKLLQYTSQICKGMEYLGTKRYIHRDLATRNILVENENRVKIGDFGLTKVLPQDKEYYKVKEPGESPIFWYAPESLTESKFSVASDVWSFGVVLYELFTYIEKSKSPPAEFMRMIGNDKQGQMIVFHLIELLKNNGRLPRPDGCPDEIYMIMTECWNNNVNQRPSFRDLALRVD
Assay: JAK2 enzyme assay (Caliper LabChip, peptide phosphorylation)
Conditions: 25 μM ATP
Counter-ions that a name gives are not always drawn.
recorded-metric: Ki (pM)
State the answer as a number, implicitly in pM.

Below: 5 compounds and their reported Ki.
[
  {
    "compound": "N#CCCN1CCN(C(=O)Cn2cc(NC(=O)c3cnn4cccnc34)c(-c3cc(Cl)ccc3OC(F)F)n2)CC1",
    "target": "isolated recombinant JAK2 kinase domain (Homo sapiens (Human), UniProt O60674)",
    "recorded-metric": "Ki",
    "measured-value": 990
  },
  {
    "compound": "Nc1nn2cccnc2c1C(=O)Nc1cn(CC(=O)N2CCOC(CO)C2)nc1-c1cc(Cl)ccc1OC(F)F (stereo not drawn)",
    "target": "isolated recombinant JAK2 kinase domain (Homo sapiens (Human), UniProt O60674)",
    "recorded-metric": "Ki",
    "measured-value": 230
  },
  {
    "compound": "CN1CCC2(CC1)CCN(C(=O)Cn1cc(NC(=O)c3cnn4cccnc34)c(-c3cc(Cl)ccc3OC(F)F)n1)C2",
    "target": "isolated recombinant JAK2 kinase domain (Homo sapiens (Human), UniProt O60674)",
    "recorded-metric": "Ki",
    "measured-value": 1590
  },
  {
    "compound": "CN(C)C[C@H]1CCCN1C(=O)Cn1cc(NC(=O)c2c(N)nn3cccnc23)c(-c2cc(Cl)ccc2OC(F)F)n1",
    "target": "isolated recombinant JAK2 kinase domain (Homo sapiens (Human), UniProt O60674)",
    "recorded-metric": "Ki",
    "measured-value": 1380
  },
  {
    "compound": "O=C(Nc1cn(C2CCNCC2)nc1-c1cc(Cl)ccc1OC(F)F)c1cnn2cccnc12 [Example 1, hydrochloride]",
    "target": "isolated recombinant JAK2 kinase domain (Homo sapiens (Human), UniProt O60674)",
    "recorded-metric": "Ki",
    "measured-value": 460
  }
]

Q: Reported Ki for COC(=O)CCN(C)C1CCN(C(=O)Cn2cc(NC(=O)c3cnn4cccnc34)c(-c3cc(Cl)ccc3OC(F)F)n2)CC1 : what is it?
Ans: 1470

Q: Also check N#CC1CCN(C2CCN(C(=O)Cn3cc(NC(=O)c4cnn5cccnc45)c(-c4cc(Cl)ccc4OC(F)F)n3)CC2)C1 (stereo not drawn)
Ans: 890

Q: And for Cc1cnc2c(C(=O)Nc3cn(CC(=O)N4C[C@H]5CN(C)C[C@H]5C4)nc3-c3cc(Cl)ccc3OC(F)F)cnn2c1 [Example 8, hydrochloride] ?
Ans: 120000

Q: What do we get for CN(CCCN1CCC(n2cc(NC(=O)c3c(N)nn4cccnc34)c(-c3cc(Cl)ccc3OC(F)F)n2)CC1)C(=O)c1ccccc1 ?
Ans: 420
